// data source = patent US6593299B1

Tested on: Aedes aegypti larvae
EXPERIMENTAL_DETAILS: Feeding TMOF and analog peptides to mosquito larvae (LD50)
Assay type: in vivo
CONDITION_DESCRIPTION: newly hatched larvae on autoclaved yeast 1 mg/ml, peptide 0 to 5.0 mg/ml, microtiter plates, 7 days
Square brackets hold non-standard residues; d marks the D form. Peptide text beside a SMILES is read from it.
Hi! Just check whether LD50 + S.E.M. is below 1 mM. Below gives Satisfied, equal or above gives Not satisfied.

Task: Is the reported LD50 + S.E.M. for N[C@@H](Cc1ccc(O)cc1)C(=O)N[C@@H](CO)C(=O)N[C@@H](Cc1ccccc1)C(=O)O [30. YSF, YSF] (H-Tyr-Ser-Phe-OH; N-terminus and C-terminus assumed) strictly below 1 mM?
Output: Not satisfied

Task: Lab log: compare recorded LD50 + S.E.M. with 1 mM; is it strictly lower for N[C@H](Cc1ccc(O)cc1)C(=O)N[C@@H](CC(=O)O)C(=O)N1CCC[C@H]1C(=O)O [24. (D)YDP, (D)YDP] (H-[dY]-Asp-Pro-OH; N-terminus and C-terminus assumed) ?
Output: Satisfied

Task: Would you kindly verify if LD50 + S.E.M. of N[C@@H](Cc1ccc(O)cc1)C(=O)N[C@@H](CC(=O)O)C(=O)N1CCC[C@H]1C(=O)O [34. YDP, YDP] (H-Tyr-Asp-Pro-OH; N-terminus and C-terminus assumed) is strictly less than 1 mM?
Output: Not satisfied

Task: Hello, I'm reviewing records and need to know if LD50 + S.E.M. of C[C@H](NC(=O)[C@H](C)NC(=O)[C@@H]1CCCN1)C(=O)O [37. PAA, PAA] (H-Pro-Ala-Ala-OH; N-terminus and C-terminus assumed) is below 1 mM. Could you check?
Output: Not satisfied

Task: Please state whether LD50 + S.E.M. is below 1 mM for C[C@H](NC(=O)[C@@H](N)Cc1ccccc1)C(=O)N1CCC[C@H]1C(=O)O [39. FAP, FAP] (H-Phe-Ala-Pro-OH; N-terminus and C-terminus assumed)
Output: Not satisfied

Task: Quick check: LD50 + S.E.M. of N[C@@H](Cc1ccc(O)cc1)C(=O)N[C@H](CC(=O)O)C(=O)N1CCC[C@H]1C(=O)O [22. Y(D)DP, Y(D)DP] (H-Tyr-[dD]-Pro-OH; N-terminus and C-terminus assumed) under 1 mM?
Output: Satisfied

Task: Determine whether this molecule shows LD50 + S.E.M. lower than 1 mM (ties excluded): N[C@@H](Cc1ccc(O)cc1)C(=O)N[C@@H](CC(=O)O)C(=O)O [41. YD, YD] (H-Tyr-Asp-OH; N-terminus and C-terminus assumed)
Output: Not satisfied

Task: Would you kindly verify if LD50 + S.E.M. of N[C@@H](Cc1ccccc1)C(=O)N[C@@H](CC(=O)O)C(=O)N1CCC[C@H]1C(=O)O [33. FDP, FDP] (H-Phe-Asp-Pro-OH; N-terminus and C-terminus assumed) is strictly less than 1 mM?
Output: Not satisfied

Task: LD50 + S.E.M. under 1 mM? Item: C[C@H](NC(=O)[C@H](CC(=O)O)NC(=O)[C@@H](N)Cc1ccc(O)cc1)C(=O)O [32. YDA, YDA] (H-Tyr-Asp-Ala-OH; N-terminus and C-terminus assumed)
Output: Not satisfied

Task: Say whether its LD50 + S.E.M. is strictly beneath 1 mM. Entry: C[C@H](N)C(=O)N[C@@H](C)C(=O)N1CCC[C@H]1C(=O)O [29. AAP, AAP] (H-Ala-Ala-Pro-OH; N-terminus and C-terminus assumed)
Output: Not satisfied

Task: Quick check: LD50 + S.E.M. of N[C@@H](CC(=O)O)C(=O)N[C@@H](Cc1ccc(O)cc1)C(=O)N1CCC[C@H]1C(=O)O [31. DYP, DYP] (H-Asp-Tyr-Pro-OH; N-terminus and C-terminus assumed) under 1 mM?
Output: Not satisfied

Task: Determine if N[C@@H](Cc1ccccc1)C(=O)N[C@@H](CO)C(=O)N1CCC[C@H]1C(=O)O [35. FSP, FSP] (H-Phe-Ser-Pro-OH; N-terminus and C-terminus assumed) shows LD50 + S.E.M. strictly lower than 1 mM.
Output: Not satisfied

Task: LD50 + S.E.M. strictly < 1 mM for this molecule? C[C@H](N)C(=O)N[C@@H](CC(=O)O)C(=O)N1CCC[C@H]1C(=O)O [40. ADP, ADP] (H-Ala-Asp-Pro-OH; N-terminus and C-terminus assumed)
Output: Not satisfied

Task: Here's an entry: C[C@H](NC(=O)[C@@H](N)Cc1ccc(O)cc1)C(=O)N1CCC[C@H]1C(=O)O [36. YAP, YAP] (H-Tyr-Ala-Pro-OH; N-terminus and C-terminus assumed) . Is its LD50 + S.E.M. below 1 mM?
Output: Not satisfied

Task: Strictly below 1 mM: is that where LD50 + S.E.M. of N[C@@H](Cc1ccc(O)cc1)C(=O)N[C@@H](CC(=O)O)C(=O)NCC(=O)O [26. YDG, YDG] (H-Tyr-Asp-Gly-OH; N-terminus and C-terminus assumed) sits?
Output: Satisfied

Task: Hello, is LD50 + S.E.M. of the following molecule strictly smaller than 1 mM? N[C@@H](Cc1ccc(O)cc1)C(=O)N[C@@H](CC(=O)O)C(=O)N[C@@H](Cc1ccccc1)C(=O)O [27. YDF, YDF] (H-Tyr-Asp-Phe-OH; N-terminus and C-terminus assumed)
Output: Satisfied

Task: Item C[C@H](NC(=O)[C@@H]1CCCN1)C(=O)N1CCC[C@H]1C(=O)O [38. PAP, PAP] (H-Pro-Ala-Pro-OH; N-terminus and C-terminus assumed) : LD50 + S.E.M. beneath 1 mM, strictly?
Output: Not satisfied

Task: # strict comparison: is reported LD50 + S.E.M. < 1 mM? input = N[C@@H](CC(=O)O)C(=O)N[C@@H](Cc1ccc(O)cc1)C(=O)O [42. DY, DY] (H-Asp-Tyr-OH; N-terminus and C-terminus assumed)
Output: Not satisfied

Task: Does this molecule meet the criterion LD50 + S.E.M. < 1 mM? C[C@H](NC(=O)[C@H](C)NC(=O)[C@@H](N)CC(=O)O)C(=O)O [25. DAA, DAA] (H-Asp-Ala-Ala-OH; N-terminus and C-terminus assumed)
Output: Satisfied
